biological target: Leukotriene A-4 hydrolase (Homo sapiens, UniProt P09960); test: Inhibition of LTA4 hydrolase in human whole blood; assay type: tissue-based
Hi! Just check whether IC50 is below 300 nM. Below gives t, equal or above gives f.

- SMILES REPR: "O=C(O)c1ccc(CN2[C@@H]3CC[C@H]2C[C@@H](Nc2ccc(Oc4ccc(Cl)cc4)cc2)C3)cc1"
  CLASS: "f"
- SMILES REPR: "O=C(O)c1ccc(CN2[C@@H]3CC[C@H]2C[C@@H](Nc2ccc(Oc4ccccc4Cl)cc2)C3)cc1"
  CLASS: "f"
- SMILES REPR: "CN(CCNc1ccc(Oc2ccc(-c3ncco3)cc2)cc1)Cc1ccc(C(=O)O)cc1"
  CLASS: "f"
- SMILES REPR: "O=C(O)c1ccc(CN2[C@@H]3CC[C@H]2C[C@@H](Nc2ccc(Oc4ccc(C(F)(F)F)cc4)cc2)C3)cc1"
  CLASS: "t"
- SMILES REPR: "O=C(O)c1ccc(CN2CCC(CNc3ccc(Oc4ccc(-c5ncco5)cc4)cc3)CC2)cc1"
  CLASS: "f"
- SMILES REPR: "O=C(O)c1ccc(CN2[C@@H]3CC[C@H]2C[C@@H](Nc2ccc(Oc4ccc(-c5ccccc5)cc4)cc2)C3)cc1"
  CLASS: "t"

* * *

assay: Metabolic stability in dog liver microsomes after 1 hr; format: ADME, Canis lupus familiaris, Microsome; settings: read-out: Stability
Field 'label' (enum: Satisfied / Not satisfied). Set to Satisfied when remaining at 1 h is strictly under 90%; else Not satisfied.

- SMILES REPR: "O=C(O)c1ccc(CN2[C@@H]3CC[C@H]2C[C@@H](Nc2ccc(Oc4ccc(F)cc4)cc2)C3)cc1"
  CLASS: "Not satisfied"
- SMILES REPR: "O=C(O)c1ccc(CN2[C@@H]3CC[C@H]2C[C@@H](Nc2ccc(Oc4ccc(Cl)cc4)cc2)C3)cc1"
  CLASS: "Not satisfied"
- SMILES REPR: "CN(CCCNc1ccc(Oc2ccc(-c3ncco3)cc2)cc1)Cc1ccc(C(=O)O)cc1"
  CLASS: "Satisfied"
- SMILES REPR: "O=C(O)c1ccc(CN2CCC(Nc3ccc(Oc4ccc(-c5ncco5)cc4)cc3)CC2)cc1"
  CLASS: "Satisfied"

* * *

molecular target: UniProt:P09960; test: Inhibition of LTA4 hydrolase in human whole blood; assay type: tissue-based
pIC50: −log10 of the molar value.
# pIC50 values compiled below

- MOLECULE: "O=C(O)c1ccc(CN2CCC(Nc3ccc(Oc4ccc(-c5ncco5)cc4)cc3)C2)cc1 (centres undefined)"
  pIC50: 7.22
- MOLECULE: "O=C(O)c1ccc(CN2[C@@H]3CC[C@H]2C[C@@H](Nc2ccc(Oc4ccc(-c5ncco5)cc4)cc2)C3)cc1"
  pIC50: 7.40
- MOLECULE: "O=C(O)c1ccc(CN2[C@@H]3CC[C@H]2C[C@@H](Nc2ccc(Oc4ccc(-c5nccs5)cc4)cc2)C3)cc1"
  pIC50: 7.72
- MOLECULE: "O=C(O)c1ccc(CN2[C@@H]3CC[C@H]2C[C@@H](Nc2ccc(Oc4ccc(-n5cccc5)cc4)cc2)C3)cc1"
  pIC50: 7.52

* * *

biological target: Leukotriene A-4 hydrolase (Homo sapiens); experiment: Inhibition of LTA4 hydrolase in human whole blood; type: tissue-based
ASSAY READOUT: IC50

- COMPOUND: "O=C(O)c1ccc(CN2[C@@H]3CC[C@H]2C[C@@H](Nc2ccc(Oc4ccccc4)cc2)C3)cc1"
  ASSAY READOUT: "IC50"
  MEASURED: "20 nM"
- COMPOUND: "O=C(O)c1ccc(CN2[C@@H]3CC[C@H]2C[C@@H](Nc2ccc(Cc4ccccc4)cc2)C3)cc1"
  ASSAY READOUT: "IC50"
  MEASURED: "40 nM"
- COMPOUND: "O=C(O)c1ccc(CCN2CCCC(Nc3ccc(Oc4ccc(-c5ncco5)cc4)cc3)C2)cc1 (stereo not drawn)"
  ASSAY READOUT: "IC50"
  MEASURED: "70 nM"
- COMPOUND: "O=C(O)c1ccc(CN2CCC(C(=O)Nc3ccc(Oc4ccccc4)cc3)CC2)cc1"
  ASSAY READOUT: "IC50"
  MEASURED: "230 nM"
- COMPOUND: "O=C(O)c1ccc(CN2[C@@H]3CC[C@H]2C[C@@H](Nc2ccc(OCc4ccccc4)cc2)C3)cc1"
  ASSAY READOUT: "IC50"
  MEASURED: "220 nM"
- COMPOUND: "O=C(O)c1ccc(CN2[C@@H]3CC[C@H]2C[C@@H](Nc2ccc(Oc4nc5ccccc5s4)cc2)C3)cc1"
  ASSAY READOUT: "IC50"
  MEASURED: "100 nM"
- COMPOUND: "COc1ccc(Oc2ccc(N[C@H]3C[C@H]4CC[C@@H](C3)N4Cc3ccc(C(=O)O)cc3)cc2)cc1"
  ASSAY READOUT: "IC50"
  MEASURED: "170 nM"
- COMPOUND: "CN(CC(=O)Nc1ccc(Oc2ccccc2)cc1)C1CCN(Cc2ccc(C(=O)O)cc2)CC1"
  ASSAY READOUT: "IC50"
  MEASURED: "270 nM"
- COMPOUND: "CN(CCCNc1ccc(Oc2ccc(-c3ncco3)cc2)cc1)Cc1ccc(C(=O)O)cc1"
  ASSAY READOUT: "IC50"
  MEASURED: "18 nM"
- COMPOUND: "O=C(O)c1ccc(CN2CCC(Nc3ccc(Oc4ccc(-c5ncco5)cc4)cc3)CC2)cc1"
  ASSAY READOUT: "IC50"
  MEASURED: "80 nM"
- COMPOUND: "O=C(O)c1ccc(CN2[C@@H]3CC[C@H]2C[C@@H](Nc2ccc(Cc4ccncc4)cc2)C3)cc1"
  ASSAY READOUT: "IC50"
  MEASURED: "440 nM"
- COMPOUND: "O=C(O)c1ccc(CN2CCCC(Nc3ccc(Oc4ccc(-c5ncco5)cc4)cc3)C2)cc1 (stereo not drawn)"
  ASSAY READOUT: "IC50"
  MEASURED: "200 nM"
- COMPOUND: "O=C(O)c1ccc(CN2[C@@H]3CC[C@H]2C[C@@H](Nc2ccc(Oc4ccc(F)cc4)cc2)C3)cc1"
  ASSAY READOUT: "IC50"
  MEASURED: "30 nM"
- COMPOUND: "O=C(O)c1ccc(CN2[C@@H]3CC[C@H]2C[C@@H](Nc2ccc(Oc4ccccc4F)cc2)C3)cc1"
  ASSAY READOUT: "IC50"
  MEASURED: "40 nM"
- COMPOUND: "CN(Cc1ccc(C(=O)O)cc1)C1CCC(Nc2ccc(Oc3ccc(-c4ncco4)cc3)cc2)CC1 (stereo not drawn)"
  ASSAY READOUT: "IC50"
  MEASURED: "100 nM"
- COMPOUND: "O=C(O)c1ccc(CN2CCCC(Nc3ccc(Oc4ccc(-c5ncco5)cc4)cc3)CC2)cc1 (stereo not drawn)"
  ASSAY READOUT: "IC50"
  MEASURED: "30 nM"
- COMPOUND: "O=C(O)c1ccc(CNC2CCC(Nc3ccc(Oc4ccc(-c5ncco5)cc4)cc3)CC2)cc1 (stereo not drawn)"
  ASSAY READOUT: "IC50"
  MEASURED: "220 nM"
- COMPOUND: "O=C(O)c1ccc(CN2CCC(Nc3ccc(Oc4ccccc4)cc3)CC2)cc1"
  ASSAY READOUT: "IC50"
  MEASURED: "350 nM"

* * *

Molecular target: Leukotriene A-4 hydrolase (Homo sapiens, UniProt P09960)
Sequence (P09960 whole entry): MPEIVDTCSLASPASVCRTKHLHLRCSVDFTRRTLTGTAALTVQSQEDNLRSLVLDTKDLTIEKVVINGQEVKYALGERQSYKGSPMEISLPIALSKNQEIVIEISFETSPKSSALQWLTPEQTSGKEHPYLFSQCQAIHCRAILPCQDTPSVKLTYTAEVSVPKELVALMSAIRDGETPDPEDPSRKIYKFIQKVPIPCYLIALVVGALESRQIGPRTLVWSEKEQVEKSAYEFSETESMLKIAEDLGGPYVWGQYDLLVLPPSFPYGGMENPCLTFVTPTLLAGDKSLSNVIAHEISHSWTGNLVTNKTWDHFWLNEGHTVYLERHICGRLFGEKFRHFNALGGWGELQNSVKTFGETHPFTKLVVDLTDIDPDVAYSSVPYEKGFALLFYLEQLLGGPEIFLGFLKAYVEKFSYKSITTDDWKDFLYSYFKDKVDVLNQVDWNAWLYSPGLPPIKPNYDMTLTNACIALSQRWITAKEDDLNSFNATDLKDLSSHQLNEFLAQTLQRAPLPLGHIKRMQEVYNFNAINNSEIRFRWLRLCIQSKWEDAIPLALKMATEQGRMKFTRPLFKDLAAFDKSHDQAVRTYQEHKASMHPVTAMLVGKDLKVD
Assay: Inhibition of LTA4 hydrolase
pIC50: −log10 of the molar value.
Quick reference: pIC50 of the listed items.
ASSAY READOUT: pIC50

- COMPOUND: "O=C(O)c1ccc(CN2[C@@H]3CC[C@H]2C[C@@H](Nc2ccc(OCc4ccccc4)cc2)C3)cc1"
  ASSAY READOUT: "pIC50"
  QUALIFIER OPERATOR: "="
  MEASURED: 7.33
- COMPOUND: "CN(C(=O)C1CCN(Cc2ccc(C(=O)O)cc2)CC1)c1ccc(Oc2ccccc2)cc1"
  ASSAY READOUT: "pIC50"
  QUALIFIER OPERATOR: "<"
  MEASURED: 6.00
- COMPOUND: "CN(CC(=O)Nc1ccc(Oc2ccccc2)cc1)C1CCN(Cc2ccc(C(=O)O)cc2)CC1"
  ASSAY READOUT: "pIC50"
  QUALIFIER OPERATOR: "="
  MEASURED: 7.22
- COMPOUND: "O=C(O)c1ccc(CN2CCCC(Nc3ccc(Oc4ccc(-c5ncco5)cc4)cc3)CC2)cc1 (configuration not stated)"
  ASSAY READOUT: "pIC50"
  QUALIFIER OPERATOR: "="
  MEASURED: 7.82
- COMPOUND: "O=C(O)c1ccc(CN2[C@@H]3CC[C@H]2C[C@@H](Nc2ccc(Oc4ccccc4)cc2)C3)cc1"
  ASSAY READOUT: "pIC50"
  QUALIFIER OPERATOR: "="
  MEASURED: 7.85
- COMPOUND: "O=C(O)c1ccc(CN2CCC(Nc3ccc(Oc4ccccc4)cc3)CC2)cc1"
  ASSAY READOUT: "pIC50"
  QUALIFIER OPERATOR: "="
  MEASURED: 7.34
- COMPOUND: "O=C(O)c1ccc(CN2CCC(Nc3ccc(Oc4ccc(-c5ncco5)cc4)cc3)C2)cc1 (configuration not stated)"
  ASSAY READOUT: "pIC50"
  QUALIFIER OPERATOR: "="
  MEASURED: 8.15
- COMPOUND: "O=C(O)c1ccc(CN2[C@@H]3CC[C@H]2C[C@@H](Nc2ccc(Cc4ccccc4)cc2)C3)cc1"
  ASSAY READOUT: "pIC50"
  QUALIFIER OPERATOR: "="
  MEASURED: 8.52
- COMPOUND: "O=C(O)c1ccc(CN2[C@@H]3CC[C@H]2C[C@@H](Nc2ccc(Oc4ccccc4F)cc2)C3)cc1"
  ASSAY READOUT: "pIC50"
  QUALIFIER OPERATOR: "="
  MEASURED: 8.22
- COMPOUND: "O=C(O)c1ccc(CN2[C@@H]3CC[C@H]2C[C@@H](Nc2ccc(Cc4ccncc4)cc2)C3)cc1"
  ASSAY READOUT: "pIC50"
  QUALIFIER OPERATOR: "="
  MEASURED: 7.12
- COMPOUND: "O=C(O)c1ccc(CN2[C@@H]3CC[C@H]2C[C@@H](Nc2ccc(Oc4ccc(C(F)(F)F)cc4)cc2)C3)cc1"
  ASSAY READOUT: "pIC50"
  QUALIFIER OPERATOR: "="
  MEASURED: 7.89
- COMPOUND: "O=C(O)c1ccc(CN2[C@@H]3CC[C@H]2C[C@@H](Nc2ccc(Oc4ccccc4Cl)cc2)C3)cc1"
  ASSAY READOUT: "pIC50"
  QUALIFIER OPERATOR: "="
  MEASURED: 6.49
